Assay: Pharmacokinetics of subcutaneously injected COG1410
Details: plasma, sc
Description: Male C57Bl/6 mice (20-24 g, Charles River, Raleigh, N.C.) are injected with a peptide dimer subcutaneously at a volume of 5 mL/kg in the scruff of the neck. Ten minutes before the desired timepoint, mice are anesthetized and at the desired timepoint blood is drawn by cardiac puncture. Blood from at least 4 mice is used for each timepoint with the samples collected at 5, 10, 15, 30, 45, 60, 90, 120, 180 and 240 minutes for the initial analysis. […]
Non-standard residues stand in square brackets, D forms with d. Residues, ends and D or L forms follow the SMILES beside them. Aib = CC(C)(N)C(=O)O
measured_parameter: Tmax

Please give the measured Tmax for this molecule: CC(=O)N[C@@H](C)C(=O)N[C@@H](CO)C(=O)NC(C)(C)C(=O)N[C@@H](CC(C)C)C(=O)N[C@@H](CCCNC(=N)N)C(=O)N[C@@H](CCCCN)C(=O)N[C@@H](CC(C)C)C(=O)NC(C)(C)C(=O)N[C@@H](CCCCN)C(=O)N[C@@H](CCCNC(=N)N)C(=O)N[C@@H](CC(C)C)C(=O)N[C@@H](CC(C)C)C(N)=O [COG1410, AS(Aib)LRKL(Aib)KRLL (SEQ ID NO: 5)] (Ac-AS[Aib]LRKL[Aib]KRLL-NH2; N-terminus and C-terminus assumed) 20 to 30 min
